# experimental details: in vivo
# condition description: mouse
readout: NOAEL (mg/kg)
Give just the number in mg/kg; leave the unit off.

Which NOAEL is reported for this compound? C[C@@H](O)[C@H]1C(=O)N2C(C(=O)[O-])=C(SCc3cc[n+](C)cc3)C[C@H]12 [Example 1] 5

----------
# System: S. faecalis A20688
# experimental details: M.I.C., tube dilution
# Type: cell-based
# condition description: Enterococcus faecalis, A20688, overnight incubation at 37° C., Nutrient Broth; read-out: MIC
readout: MIC

Which MIC is reported for this molecule? C[C@@H](O)[C@H]1C(=O)N2C(C(=O)[O-])=C(SCc3n[n+](C)nn3C)C[C@H]12 16 µg/mL

C[C@@H](O)[C@H]1C(=O)N2C(C(=O)[O-])=C(SCc3ccc[n+](C)c3)C[C@H]12 , same question. 0.5 µg/mL

C[C@@H](O)[C@H]1C(=O)N2C(C(=O)[O-])=C(SCc3cccc[n+]3C)C[C@H]12 , same question. 0.5 µg/mL

Cc1scc(CSC2=C(C(=O)[O-])N3C(=O)[C@H]([C@@H](C)O)[C@H]3C2)[n+]1C , same question. 0.5 µg/mL

C[C@@H](O)[C@H]1C(=O)N2C(C(=O)[O-])=C(SCc3cc[n+](C)cc3)C[C@H]12 , same question. 0.5 µg/mL

CC(SC1=C(C(=O)[O-])N2C(=O)[C@H]([C@@H](C)O)[C@H]2C1)c1cc[n+](C)cc1 (some centres unmarked) , same question. 0.5 µg/mL

C[C@@H](O)[C@H]1C(=O)N2C(C(=O)[O-])=C(SCc3cn(C)n[n+]3CC(=O)O)C[C@H]12 , same question. 4 µg/mL

C[C@@H](O)[C@H]1C(=O)N2C(C(=O)[O-])=C(SCc3cs[n+](C)n3)C[C@H]12 , same question. 1 µg/mL

C[C@@H](O)[C@H]1C(=O)N2C(C(=O)[O-])=C(SCc3scc[n+]3C)C[C@H]12 , same question. 0.5 µg/mL

C[C@@H](O)[C@H]1C(=O)N2C(C(=O)[O-])=C(SCc3cn(CC(=O)O)n[n+]3C)C[C@H]12 , same question. 63 µg/mL

CCC[n+]1ccc(CSC2=C(C(=O)[O-])N3C(=O)[C@H]([C@@H](C)O)[C@H]3C2)cc1 , same question. 0.5 µg/mL
